Target: human PCSK9 (Homo sapiens, UniProt Q8NBP7)
Sequence (Q8NBP7 153-692): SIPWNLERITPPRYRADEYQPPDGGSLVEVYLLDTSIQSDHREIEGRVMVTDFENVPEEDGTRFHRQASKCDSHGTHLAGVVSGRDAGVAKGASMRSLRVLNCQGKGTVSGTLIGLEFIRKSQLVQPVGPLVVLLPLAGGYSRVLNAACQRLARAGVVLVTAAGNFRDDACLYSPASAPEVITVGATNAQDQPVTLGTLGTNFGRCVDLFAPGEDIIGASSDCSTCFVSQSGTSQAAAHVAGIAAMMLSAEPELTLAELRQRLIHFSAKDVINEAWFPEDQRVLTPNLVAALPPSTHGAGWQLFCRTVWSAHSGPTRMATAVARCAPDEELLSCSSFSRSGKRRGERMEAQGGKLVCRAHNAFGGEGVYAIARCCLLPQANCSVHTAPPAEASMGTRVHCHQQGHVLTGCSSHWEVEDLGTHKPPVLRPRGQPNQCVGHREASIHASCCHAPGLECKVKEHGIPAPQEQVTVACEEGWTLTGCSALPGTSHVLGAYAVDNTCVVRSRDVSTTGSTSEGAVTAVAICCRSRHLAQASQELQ
Sequence (Q8NBP7 31-152 partner limits assumed): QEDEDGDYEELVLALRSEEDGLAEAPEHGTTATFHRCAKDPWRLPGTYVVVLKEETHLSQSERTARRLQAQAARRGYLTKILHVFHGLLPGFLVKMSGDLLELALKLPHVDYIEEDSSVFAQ
Experiment: PCSK9 ligand binding TR-FRET assay (interference with binding of human PCSK9 to human LDLR)
Conditions: TR-FRET; human PCSK9 Alexa Fluor 647 / human LDLR extracellular domain-Europium Kryptate; read-out: PCSK9 FRET Assay IC50
Reported values of IC50 for individual entries

{"MOLECULE": "COC[C@@H]1NC(=O)[C@H](C)N(Cc2ccc(Cl)cc2Oc2ccc(-c3cnc(CN(C)C)n3C)cc2)C(=O)C[C@@H](OC)C(=O)N(C)[C@@H](C)CNC(=O)C[C@H](Cc2ccc(Cl)cc2)N(C)C1=O", "IC50 / nM": 74}
{"MOLECULE": "C[C@@H]1CC(=O)N(Cc2ccc(Cl)cc2Oc2ccc(-c3cnc(CN(C)C)n3C)cc2)[C@@H](C)C(=O)N[C@@H](CO)C(=O)N(C)[C@@H](Cc2ccc(Cl)cc2)CC(=O)N[C@H]2CCCC[C@@H]2N(C)C1=O", "IC50 / nM": 3.6}
{"MOLECULE": "COC[C@@H]1NC(=O)[C@H](C)N(Cc2ccc(Cl)cc2Oc2ccc(-c3cnc(CN(C)C)n3C)cc2)C(=O)C[C@@H](Cc2ccccn2)C(=O)N(C)[C@@H](C)[C@H](C)NC(=O)C[C@H](Cc2ccc(Cl)cc2)N(C)C1=O", "IC50 / nM": 1.8}
{"MOLECULE": "[2H]C([2H])([2H])N(Cc1ncc(-c2ccc(Oc3cc(Cl)ccc3CN3C(=O)C[C@@H](Cc4ccccc4)C(=O)N(C)[C@@H](C)CNC(=O)C[C@H](Cc4ccc(Cl)cc4)N(C)C(=O)[C@H](COC)NC(=O)[C@@H]3CC)cc2)n1C)C([2H])([2H])[2H]", "IC50 / nM": 1.7}
{"MOLECULE": "COC[C@@H]1NC(=O)[C@H](CCCNC(=O)OC(C)(C)C)N(Cc2ccc(Cl)cc2Oc2ccc(-c3cnc(CN(C)C)n3C)cc2)C(=O)C[C@@H](Cc2ccccc2)C(=O)N(C)[C@H]2CCCC[C@@H]2NC(=O)C[C@H](Cc2ccc(Cl)cc2)N(C)C1=O", "IC50 / nM": 1.2}
{"MOLECULE": "COC[C@@H]1NC(=O)[C@H](C)N(Cc2ccc(Cl)cc2Oc2ccc(-c3cnc4n3CCN(C(C)C)C4)cc2)C(=O)C[C@@H](Cc2ccccc2)C(=O)N(C)[C@@H](C)CNC(=O)C[C@H](Cc2ccc(Cl)cc2)N(C)C1=O.O=C(O)C(F)(F)F [Compound 123, trifluoroacetate]", "IC50 / nM": 3.4}
{"MOLECULE": "COC[C@@H]1NC(=O)[C@H](C)N(Cc2ccc(Cl)cc2Oc2ccc(-n3cnc(CN4CCOCC4)c3C)cc2)C(=O)C[C@@H](Cc2ccccc2)C(=O)N(C)[C@H]2CCCC[C@@H]2NC(=O)C[C@H](Cc2ccc(Cl)cc2)N(C)C1=O", "IC50 / nM": 1.9}
{"MOLECULE": "COC[C@@H]1NC(=O)[C@H](C)N(Cc2ccc(Cl)cc2Oc2ccc(-c3cncc(C4CN(C)CCN4C)c3)cc2)C(=O)C[C@@H](Cc2ccccc2)C(=O)N(C)[C@@H](C)CNC(=O)C[C@H](Cc2ccc(Cl)cc2)N(C)C1=O (some centres unmarked)", "IC50 / nM": 9.4}

Hello, the source for this data is patent US20230089867A1, in case you need it.
